Origin of the recorded values: paper PMC12390655

Molecular target: eVP24–KPNA5-ΔIBB complex (Homo sapiens, UniProt O15131)
Assay: biochemical
Assay type: binding, Human KPNA5; Ebola VP24
Ends that are not written are not given here.
reported property: Kd (nM)
Numbers only, in nM.

Would you kindly share the measured Kd for STPPKKKRKVE [mpNLS] ? 5200

More entries:
Find the recorded Kd belonging to KRPAATKKAGQAKKKK [bpNLS] and report it. 210
